# SYSTEM_NAME: recombinant N-terminal PMS2 (residues 1-365) (Homo sapiens (Human), UniProt P54278)
# Sequence (P54278 1-365): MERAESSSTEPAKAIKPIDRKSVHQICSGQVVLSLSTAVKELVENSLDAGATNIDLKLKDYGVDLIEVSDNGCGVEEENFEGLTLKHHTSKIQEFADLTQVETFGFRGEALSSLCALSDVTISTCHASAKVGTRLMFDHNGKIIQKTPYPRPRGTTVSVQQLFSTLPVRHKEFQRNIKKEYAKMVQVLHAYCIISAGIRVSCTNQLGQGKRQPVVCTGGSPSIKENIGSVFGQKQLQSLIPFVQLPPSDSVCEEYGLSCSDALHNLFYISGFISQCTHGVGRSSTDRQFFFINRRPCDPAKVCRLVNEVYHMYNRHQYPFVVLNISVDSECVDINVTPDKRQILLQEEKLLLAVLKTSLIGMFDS
# PROCEDURE_SUMMARY: Fluorescence polarisation assay for PMS2
# ASSAY_CONTEXT: FP probe displacement; 10 nM N-terminal PMS2, 5 nM probe compound, read after 1 hour
So I've got a bunch of compounds here, and I need their IC50 values.

Prompt: Dear colleague, I am looking for the recorded IC50 of the following compound: O=C(c1c(O)cc(O)cc1OCc1c[nH]nn1)N1CCCC1 [Example 22]
Completion: > 10000 nM

Prompt: Dear colleague, I am looking for the recorded IC50 of the following compound: O=C(c1c(O)cc(O)cc1OCc1ccccn1)N1CCCC1 [Example 12]
Completion: > 10000 nM

Prompt: Dear colleague, I am looking for the recorded IC50 of the following compound: O=C(c1c(O)cc(O)cc1OCc1ccccc1)N1CCc2ccccc2C1 [Example 58]
Completion: 1000 to 10000 nM

Prompt: Dear colleague, I am looking for the recorded IC50 of the following compound: Cc1cccc(COc2c(C)c(O)cc(O)c2C(=O)N2Cc3cccnc3C2)c1 [Example 31]
Completion: < 1000 nM

Prompt: Dear colleague, I am looking for the recorded IC50 of the following compound: O=C(c1c(O)cc(O)cc1OCc1ccncn1)N1CCCC1 [Example 20]
Completion: > 10000 nM

Prompt: Dear colleague, I am looking for the recorded IC50 of the following compound: COc1ccc2c(c1)CN(C(=O)c1c(O)cc(O)cc1OC(C)c1ccccc1)C2 (centres unmarked) [Example 28]
Completion: < 1000 nM

Prompt: Dear colleague, I am looking for the recorded IC50 of the following compound: COc1cc2c(cc1OC)CN(C(=O)c1c(O)cc(O)cc1OCc1ccccc1)C2 [Example 26]
Completion: < 1000 nM

Prompt: Dear colleague, I am looking for the recorded IC50 of the following compound: Cc1c(O)cc(O)c(C(=O)N2CCc3cc(CN(C)C)ccc3C2)c1OCc1ccccc1 [Example 61]
Completion: < 1000 nM

---

# SYSTEM_NAME: recombinant N-terminal MLH1 (residues 15-340) (Homo sapiens (Human))
# Sequence (P40692 15-340): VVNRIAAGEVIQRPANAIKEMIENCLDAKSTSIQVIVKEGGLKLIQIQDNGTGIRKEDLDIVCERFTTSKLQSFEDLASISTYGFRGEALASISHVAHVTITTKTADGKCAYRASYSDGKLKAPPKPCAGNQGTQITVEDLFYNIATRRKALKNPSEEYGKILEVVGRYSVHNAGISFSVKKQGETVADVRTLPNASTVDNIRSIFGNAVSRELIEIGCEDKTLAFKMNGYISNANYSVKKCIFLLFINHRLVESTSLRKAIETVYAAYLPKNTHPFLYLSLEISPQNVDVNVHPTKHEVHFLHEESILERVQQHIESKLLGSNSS
# PROCEDURE_SUMMARY: Fluorescence polarisation assay for MLH1 (protocol for all Examples except Examples 64, 76, 90 and 95)
# Type: binding
# ASSAY_CONTEXT: FP probe displacement; 100 nM N-terminal MLH1, 5 nM probe compound, read after 15 minutes; all Examples except 64, 76, 90 and 95
PROPERTY_NAME: IC50

Prompt: Dear colleague, I am looking for the recorded IC50 of the following compound: `O=C(c1c(O)cc(O)cc1OCc1ccccc1)N1CCCC1`
Completion: > 10 µM

Prompt: Dear colleague, I am looking for the recorded IC50 of the following compound: `Cc1c(O)cc(O)c(C(=O)N2Cc3cccc(C(=O)N(C)C)c3C2)c1OCc1ccccc1`
Completion: > 10 µM

Prompt: Dear colleague, I am looking for the recorded IC50 of the following compound: `COc1ccc2c(c1)CN(C(=O)c1c(O)cc(O)c(C)c1OCc1ccccn1)CC2`
Completion: > 10 µM

Prompt: Dear colleague, I am looking for the recorded IC50 of the following compound: COc1ccc2c(c1)CN(C(=O)c1c(O)cc(O)cc1OC(C)c1ccccc1)C2 (centres unmarked)
Completion: 1 to 10 µM

Prompt: Dear colleague, I am looking for the recorded IC50 of the following compound: `O=C(c1c(O)cc(O)cc1OCc1ccccc1)N1CCCc2ccccc21`
Completion: 1 to 10 µM

Ref: patent US12552758B2
